Recorded IC50 for the following compounds
# Test system: VEGFA
# PROTOCOL SUMMARY: VEGFA ELISA assay (IC50)
# Format: cell-based
# RUN PARAMETERS: Homo sapiens, 786-0; 786-O cells, 24 h, VEGFA in culture supernatant by ELISA; class symbols
# Procedure: 786-O cells in the logarithmic growth phase were inoculated into a 96-well plate at a cell concentration of 65,000 cells per ml of culture liquid, 180 μL per well. […] After culturing for 24 h, the cell culture supernatant was collected and the VEGFA concentration was determined using an ELISA kit (purchased from Abeam). Finally, the reaction was terminated and the absorbance value of each well was measured at a wavelength of 450 nm using an ELISA reader. […]

COMPOUND	IC50
N#Cc1cc(-n2cc(C(F)(F)C(N)=O)c3c2CCC(F)(F)C3O)ccc1F (stereo not shown)	500 to 1500 nM
N#Cc1cc(-n2cc(S(=O)(=O)C(F)(F)F)c3c2CCC(F)(F)[C@H]3O)ccc1Cl	≤ 500 nM
CC(C#N)S(=O)(=O)c1cn(-c2ccc(F)c(C(F)F)c2)c2c1[C@H](O)C(F)(F)CC2 (stereo partly shown)	≤ 500 nM
O[C@H]1c2c(C(F)(F)F)cn(-c3ccc(F)cc3F)c2CCC1(F)F	500 to 1500 nM
N#Cc1cc(-n2cc(S(=O)(=O)C(F)(F)F)c3c2CCC(F)(F)[C@H]3O)ccc1F	≤ 500 nM
N#Cc1ccc(-n2cc(S(=O)(=O)CF)c3c2CCC(F)(F)[C@H]3O)cc1C(F)F	≤ 500 nM
N#Cc1ccc(-n2cc(S(=O)(=O)C(F)F)c3c2CCC(F)(F)[C@H]3O)cc1C(F)(F)F	≤ 500 nM
N#Cc1ccc(-n2cc(S(=O)(=O)CF)c3c2CCC(F)(F)[C@H]3O)cc1C#N	≤ 500 nM
N#Cc1ccc(-n2cc(C(F)(F)C(F)(F)F)c3c2CCC(F)(F)C3O)cc1C(F)F (stereo not shown)	≤ 500 nM
O=S(=O)(CF)c1cn(-c2ccc(F)c(C(F)F)c2)c2c1[C@@H](O)C(F)(F)CC2	≤ 500 nM
N#Cc1ccc(-n2cc(C(F)(F)C(F)(F)F)c3c2CCC(F)(F)[C@H]3O)cc1C#N	≤ 500 nM
O=S(=O)(CF)c1cn(-c2ccc(F)c(Cl)c2)c2c1[C@H](O)C(F)(F)CC2	≤ 500 nM
N#Cc1ccc(-n2cc(S(=O)(=O)C(F)F)c3c2CCC(F)(F)[C@H]3O)cc1C(F)F	≤ 500 nM
N#CCS(=O)(=O)c1cn(-c2ccc(F)c(C(F)F)c2)c2c1[C@H](O)C(F)(F)CC2	500 to 1500 nM
NC(=O)c1cn(-c2ccc(F)c(C(F)F)c2)c2c1[C@H](O)C(F)(F)CC2	≤ 500 nM
N#CCS(=O)(=O)c1cn(-c2ccc(F)c(C(F)(F)F)c2)c2c1[C@H](O)C(F)(F)CC2	500 to 1500 nM

Values were extracted from patent US20250042853A1.
